Test name: in vitro
Condition notes: dog
Value kind: IC50

In: Query (compound): NC(=O)c1ncn([C@@H]2O[C@H](CO)[C@@H](O)[C@H]2O)n1 [Ribavirin] ; field requested: IC50
Out: > 320 µg/mL
